Origin of the recorded values: ChEMBL document CHEMBL1833970

Tested on: Enterococcus faecium
Experiment: Antimicrobial activity against vancomycin-resistant Enterococcus faecium Ef 379 after 22 hrs by microbroth dilution antibiotic susceptibility assay
Type: functional, organism-based
Conditions: Ef 379, 22 h
// reported IC50 per item

- COC(=O)CCc1nc2c(C)c3c4c(c2o1)[C@@H](C)CC[C@@H]4[C@@H](C)C[C@H]3C=C(C)C: > 128 µg/mL
- CC[C@H](C)c1nc2c(C)c3c4c(c2o1)[C@@H](C)CC[C@@H]4[C@@H](C)C[C@H]3C=C(C)C: > 128 µg/mL

Query string: Find the measured IC50 of `CC(C)=C[C@@H]1C[C@H](C)[C@H]2CC[C@H](C)c3c2c1c(C)c1nc(CCC(=O)O)oc31` with Enterococcus faecium as test system.
Result string: 12 µg/mL

Query string: Quote IC50 with test system Enterococcus faecium for `CC(C)=C[C@@H]1C[C@H](C)[C@H]2CC[C@H](C)c3c2c1c(C)c1nc(CCC(N)=O)oc31`
Result string: 7 µg/mL

Query string: Provide measured IC50 on Enterococcus faecium for `CSCCc1nc2c(C)c3c4c(c2o1)[C@@H](C)CC[C@@H]4[C@@H](C)C[C@H]3C=C(C)C` please.
Result string: > 128 µg/mL

Query string: // fetch IC50; item: `CO[C@H]1/C=C/O[C@@]2(C)Oc3c(C)c(O)c4c(O)c(c(/C=N/N5CCN(C)CC5)c(O)c4c3C2=O)NC(=O)/C(C)=C\C=C\[C@H](C)[C@H](O)[C@@H](C)[C@@H](O)[C@@H](C)[C@H](OC(C)=O)[C@@H]1C` ; system: Enterococcus faecium
Result string: 8.75 µg/mL
